# tested.on: T1, SARS-CoV-2 S1 protein NTD (N-terminal domain of spike protein of SARS-CoV-2) (SARS-CoV-2, UniProt P0DTC2 14-305)
# T1 construct: also called S1-NTD; NTD of S1 subunit
# procedure.text: biolayer interferometry, ForteBio Octet RED96e, NTD 250 nM to 7.81 nM, 1:1 model
measure: pKd
The quantity pKd is defined as the negative base-10 logarithm of the molar concentration.

Take a look at these entries with their results.
| binder | pKd |
| --- | --- |
| Antibody 12-13 (antibody, V domains shown) VH: QVQVVQSGAEVKKPGASVKVSCKVSGYTLTELSIHWVRQTPGKGLEWMGGFDPEDGETIYAQWLQGRVTMTEDTSTDIAYMELSSLRHEDTAVYYCATGPAIAGAGTNWFDPRGQGTLVIVSS VL: QSALTQPASVSGSPGQSITISCTGTSSDVGGYNYVSWYQQHPGKAPKLMIYDVSKRPSGVPDRFSGSKSGNTASLTISGLQAEDEADYYCTSYTNSSTWVFGGGTKLTVL | 8.25 |
| Antibody 13-17 (antibody, V domains shown) VH: QDQLVQSGAEVKKPGASVKVSCKVSGYTLPELSLHWVRQPPGKGLEWMGGFDPEDGETIYAQKFQGRVTMTEDTSTDTAYMELSSLRSEDTAVYYCAASTPMGGHTDWLDPWGQGTLVTVSS VL: QSVLTQPPSVSAAPGQKVTISCSGSSSNIGNNYVSWYQQLPGTAPKLLIYDNNKRPSGIPDRFSGSKSGTSATLGITGLQTGDEADYYCGTWDSSLSAGVFGGGTKLTVL | 8.36 |

Can you share its pKd? I mean this binder: Antibody 14-8 (antibody, V domains shown) VH: QVQLVQSGAEVKKPGASVKVSCKASGYTFTGYYIHWVRQAPGKGPEWMGWINPNSGGTNYAQKFQGWVTMTRDTSISAAYMELSRLKFDDTAIYYCAKSGEKVGADLGYYDYGMDLWGQGTTVTVSS VL: SYELTQPPSVSVSPGQTARITCSGDALPKQYAYWYQQKPGQAPVMVIYKDTERPSGIPERFSGSSSGTTVTLTISGVQAEDEADYNCQSVDSSGAYVVFGGGTKLTVL 8.15
